ASSAY_PROCEDURE: ATG_EGR_CIS: Attagene CIS-FACTORIAL HepG2 Assay for human Early Growth Response 1 (EGR1) (AID 2282938)
TEST_CONTEXT: HepG2 Attagene CIS-FACTORIAL EGR reporter mRNA; actives raise or lower the signal
Protocol: ATG_CIS is a cell-based, multiplexed-readout assay that uses HepG2, a human liver cell line, with measurements taken at 24 hours after chemical dosing in a 24-well plate.ATG_EGR_CIS is one of 52 assay component(s) measured or calculated from the ATG_CIS assay. […] This assay endpoint, ATG_EGR_CIS, was analyzed with bidirectional fitting relative to DMSO as the negative control and baseline of activity. […]
Calls of active or inactive are those of the source. How the source made its calls: active means hit-call score of the fitted dose curve at least 0.9, where 1 is the maximum; inactive means score below 0.9.
Classes used: active, inactive

COMPOUND | GROUP_LABEL
CC1=CC(=O)c2ccccc2C1=O | inactive
COCN(COC)c1nc(N(COC)COC)nc(N(COC)COC)n1 | inactive
Brc1cc(Br)c(Oc2c(Br)cc(Br)c(Br)c2Br)cc1Br | inactive
FC(F)(F)N1C(F)(F)C(F)(F)OC(F)(F)C1(F)F | inactive
CCN(CCC#N)c1ccccc1 | inactive
CCCCCC(C)OC(=O)COc1ccc(Cl)c2cccnc12 (stereo not drawn) | inactive
O=P(O)(O)CCC(F)(F)C(F)(F)C(F)(F)C(F)(F)C(F)(F)C(F)(F)F | inactive
CCCCC(CC)C(=O)OCCOCCOCCOCCOC(=O)C(CC)CCCC (stereo not drawn) | inactive
OCC1CCC(CO)CC1 (stereo not drawn) | inactive
O=C(NCc1ncc(C(F)(F)F)cc1Cl)c1c(Cl)cccc1Cl | inactive
FCOC(C(F)(F)F)C(F)(F)F | inactive
CCCCCCc1ccc(N)cc1 | inactive
CCC(C)c1nccnc1OC (stereo not drawn) | inactive
c1ccc(CNc2ncnc3c2ncn3C2CCCCO2)cc1 (stereo not drawn) | inactive
O=C(c1ccccc1)c1ccccc1 | inactive
CC1COCc2cc3c(cc21)C(C)(C)C(C)C3(C)C (stereo not drawn) | active
O=C(C=C(O)C(F)(F)F)C(F)(F)F | inactive
C[C@]12CC[C@@H]3c4ccc(O)cc4CC[C@H]3[C@@H]1C[C@@H](O)[C@@H]2O | inactive
CCCCCCCCCCCCCCC | inactive
CCOC=O | inactive
NC(C(F)(F)F)C(F)(F)F | inactive
CCCCN(C)C | inactive
C=CC(=O)OCCC(F)(F)C(F)(F)C(F)(F)C(F)(F)C(F)(F)C(F)(F)F | inactive
CCCCCCOC(=O)c1ccc(O)cc1 | active
O=CC(F)(F)C(F)(F)C(F)(F)F | inactive
O=C1OC(=O)c2cc(-c3ccc4c(c3)C(=O)OC4=O)ccc21 | inactive
CCC(C)c1ccccc1O (stereo not drawn) | inactive
N=C(N)c1ccc(OCCCCCOc2ccc(C(=N)N)cc2)cc1 | active

---

Read-out: Glutamate-cysteine ligase catalytic (GCLC), GCLC (gene 2729)
ASSAY_PROCEDURE: LTEA_HepaRG_GCLC: Life Technologies and Expression Analysis (LTEA) Assay for Glutamate-cysteine ligase catalytic (GCLC) using HepaRG (AID 2283498)
TEST_CONTEXT: mRNA level, 48 h; actives raise or lower the signal
Activity calls are given as the source filed them. The calls were made as follows: active = hit-call score of the fitted dose curve at least 0.9, where 1 is the maximum; inactive = score below 0.9.
Classes used: yes (active), no (inactive)

COMPOUND | GROUP_LABEL
OCC(CO)(CBr)CBr | no
CN(C)CCOC(c1ccccc1)c1ccccc1 | no
CCCCC=O | no
CCCCC(CC)C(=O)O (configuration not stated) | no
CCCCc1oc2ccccc2c1C(=O)c1cc(I)c(OCCN(CC)CC)c(I)c1 | yes
N=C(N)c1ccc(OCCCCCOc2ccc(C(=N)N)cc2)cc1 | yes
Cc1[nH]nc2c1N=C(c1ccccc1Cl)c1cc([N+](=O)[O-])ccc1N2 | yes

Attribution: PubChem BioAssay (EPA / NIEHS)
